Tested on: 2Sb-muMax20 (muMax20 with two 1,3-bis(methyl)benzene Cys staples, A13C/A17C and Q88C/A92C, C-terminal Lys)
Assay: PBM 8-mer E-score (E-score (rank enrichment, -0.5 to 0.5)); higher = stronger preferential binding
In all, about 33,000 sequences were measured (“E-score (rank enrichment, -0.5 to 0.5)”: median about -0.0028, highest 2% from about 0.23 on). The sample holds the highest values, similar sequences and a random draw of the others, so the mix is not that of the screen.
Attribute measured: PBM 8-mer E-score
Form field (numeric): enter value without unit.

Here's what some known entries look like.
Residue string	PBM 8-mer E-score
CTTTACGA	-0.11
AGGTGGGA	0.13
AACGAGGA	0.239
TACACACA	0.00095

Now look at this one.
Briefly, PBM 8-mer E-score measured for ATGTCGCG : -0.163
